Assay Info: Bioavailability after a single oral tablet in beagle dogs (plasma LC/MS/MS, non-compartmental PK)
Type: in vivo
Applied Conditions: dog, male beagle dogs, fasted, pentagastrin pre-treated, single 25 mg strength tablet (dry granulation, 30% active)
Test Readout: AUC(0-t) (µM·h)
Answer in µM·h, number only, no unit symbol.

> print(dat)
                                   compound  value.reported
1  O=C(NCc1c(F)cc(F)cc1F)c1cn2c(c(O)c1=O)C(=O)N1[C@H]3CC[C@H](C3)O[C@@H]1C2 [Formula I Form III]              27

Please find the next compound below.
So, O=C(NCc1c(F)cc(F)cc1F)c1cn2c(c([O-])c1=O)C(=O)N1[C@H]3CC[C@H](C3)O[C@@H]1C2.[Na+] [Formula II Form I] ? Its AUC(0-t) was 71
